# assay-remarks: Half life in human plasma at 1 mg/kg
reported-property: half-life (h)

* O=C1CCCC(=O)C1C(=O)c1ccc(C(F)(F)F)cc1[N+](=O)[O-] | 53

* * *

# assay-remarks: Half life in human plasma at 1 mg/kg administered as solution
# Assay type: ADME, organism-based
reported-property: half-life (h)

* CS(=O)(=O)c1ccc(C(=O)C2C(=O)CCCC2=O)c([N+](=O)[O-])c1 | 1

* * *

# target-entity: 4-hydroxyphenylpyruvate dioxygenase (Arabidopsis thaliana)
# Sequence (P93836 whole entry): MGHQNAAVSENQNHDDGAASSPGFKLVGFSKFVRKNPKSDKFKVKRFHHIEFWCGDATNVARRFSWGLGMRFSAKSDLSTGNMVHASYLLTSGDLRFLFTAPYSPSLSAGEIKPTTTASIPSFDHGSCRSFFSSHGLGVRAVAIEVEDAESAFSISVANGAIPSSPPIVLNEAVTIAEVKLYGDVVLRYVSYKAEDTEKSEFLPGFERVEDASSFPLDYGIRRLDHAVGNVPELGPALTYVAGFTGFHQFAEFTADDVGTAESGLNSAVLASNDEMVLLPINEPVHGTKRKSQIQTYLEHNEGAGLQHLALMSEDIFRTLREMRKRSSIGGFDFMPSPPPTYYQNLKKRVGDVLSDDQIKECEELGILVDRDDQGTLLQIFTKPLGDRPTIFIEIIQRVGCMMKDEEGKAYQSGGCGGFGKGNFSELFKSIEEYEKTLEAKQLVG
# assay-remarks: Inhibition of Arabidopsis thaliana HPPD expressed in Escherichia coli JM105 using HPPA as substrate after preincubated for 15 min followed by substrate addition by HPLC analysis
reported-property: IC50 (µM)

- CC(=O)C1=C(O)C=C2Oc3c(C(C)=O)c(O)c(C)c(O)c3[C@@]2(C)C1=O [(+)-USNIC ACID]: 0.07
- O=C1C[C@@H](c2ccccc2)Oc2cc(O)cc(O)c21: 73

The measurements presented in this section are drawn from ChEMBL document CHEMBL4049382.
